System: Streptococcus pneumoniae
Experiment: Antimicrobial activity against Streptococcus pneumoniae 10 expressing mefA after 20 hrs by agar dilution method
Type: functional
Settings: Streptococcus pneumoniae, 20 h; read-out: MIC
PROPERTY MEASURED: MIC (µg/mL)

COMPOUND: CCOC(=O)[C@H]1[C@H](C)O[C@@H](O[C@H]2[C@H](N(C)C)[C@@H](O)[C@H](O[C@H]3[C@@H](CC=O)C[C@@H](C)[C@@H](O)CN(CCCCc4ccccc4)CCCCNC(=O)C[C@@H](OC(=O)CC)[C@@H]3OC)O[C@@H]2C)C[C@@]1(C)OC(C)=O
SUBJECT OF TEST: Streptococcus pneumoniae
MIC, µg/mL: 0.13

a. CCOC(=O)[C@H]1[C@H](C)O[C@@H](O[C@H]2[C@H](N(C)C)[C@@H](O)[C@H](O[C@H]3[C@@H](CC=O)C[C@@H](C)[C@@H](O)CN(C)CCC[C@H](CCCc4cnc5ccccc5c4)OC(=O)C[C@@H](OC(=O)CC)[C@@H]3OC)O[C@@H]2C)C[C@@]1(C)O
b. CCOC(=O)[C@H]1[C@H](C)O[C@@H](O[C@H]2[C@H](N(C)C)[C@@H](O)[C@H](O[C@H]3[C@@H](CC=O)C[C@@H](C)[C@@H](OC(C)=O)CN(CCCCc4ccccc4)CCCOC(=O)C[C@@H](OC(=O)CC)[C@@H]3OC)O[C@@H]2C)C[C@@]1(C)OC(C)=O
**Q:** Returns: the argument ( a or b ) having the larger MIC. Please indicate the selected item by its label.
**A:** b

----------
Tested on: Staphylococcus aureus
Assay: Antimicrobial activity against drug-susceptible Staphylococcus aureus 2 after 20 hrs by agar dilution method
Type: functional
Conditions: Staphylococcus aureus, 20 h; read-out: MIC
Items are presented alongside their recorded MIC.
Please respond with the number in µg/mL and leave the unit unwritten.

COMPOUND: CCOC(=O)[C@H]1[C@H](C)O[C@@H](O[C@H]2[C@H](N(C)C)[C@@H](O)[C@H](O[C@H]3[C@@H](CC=O)C[C@@H](C)[C@@H](O)CN(CCCCc4ccccc4)CCCCNC(=O)C[C@@H](OC(=O)CC)[C@@H]3OC)O[C@@H]2C)C[C@@]1(C)OC(C)=O
SUBJECT OF TEST: Staphylococcus aureus
MIC / µg/mL: 1

MIC in this record for CCOC(=O)[C@H]1[C@H](C)O[C@@H](O[C@H]2[C@H](N(C)C)[C@@H](O)[C@H](O[C@H]3[C@@H](CC=O)C[C@@H](C)[C@@H](O)CN(C)CCC(C/C=C/c4cnc5ccccc5c4)NC(=O)C[C@@H](OC(=O)CC)[C@@H]3OC)O[C@@H]2C)C[C@@]1(C)O (stereo in doubt; form 1) : 1

----------
Test system: Haemophilus influenzae
Assay: Antimicrobial activity against drug-susceptible Haemophilus influenzae 2 after 20 hrs by agar dilution method
Type: functional
Details: Haemophilus influenzae, 20 h; read-out: MIC
PROPERTY MEASURED: MIC (mg/L)

1. CCOC(=O)[C@H]1[C@H](C)O[C@@H](O[C@H]2[C@H](N(C)C)[C@@H](O)[C@H](O[C@H]3[C@@H](CC=O)C[C@@H](C)[C@@H](OC(C)=O)CN(CCCCc4ccccc4)CCCNC(=O)C[C@@H](OC(=O)CC)[C@@H]3OC)O[C@@H]2C)C[C@@]1(C)OC(C)=O
2. CCOC(=O)[C@H]1[C@H](C)O[C@@H](O[C@H]2[C@H](N(C)C)[C@@H](O)[C@H](O[C@H]3[C@@H](CC=O)C[C@@H](C)[C@@H](O)CN(CCCCc4ccccc4)CCCCNC(=O)C[C@@H](OC(=O)CC)[C@@H]3OC)O[C@@H]2C)C[C@@]1(C)OC(C)=O
**Q:** Kindly identify which of 1 and 2 has the larger recorded MIC value. Please respond with the label that marks your chosen entry.
**A:** 2

a. CCOC(=O)[C@H]1[C@H](C)O[C@@H](O[C@H]2[C@H](N(C)C)[C@@H](O)[C@H](O[C@H]3[C@@H](CC=O)C[C@@H](C)[C@@H](O)CN(CCCCc4ccccc4)CCCNC(=O)C[C@@H](OC(=O)CC)[C@@H]3OC)O[C@@H]2C)C[C@@]1(C)OC(C)=O
b. CCOC(=O)[C@H]1[C@H](C)O[C@@H](O[C@H]2[C@H](N(C)C)[C@@H](O)[C@H](O[C@H]3[C@@H](CC=O)C[C@@H](C)[C@@H](OC(C)=O)CN(C)CCN(CCCCc4ccccc4)C(=O)C[C@@H](OC(=O)CC)[C@@H]3OC)O[C@@H]2C)C[C@@]1(C)OC(C)=O
c. CCOC(=O)[C@H]1[C@H](C)O[C@@H](O[C@H]2[C@H](N(C)C)[C@@H](O)[C@H](O[C@H]3[C@@H](CC=O)C[C@@H](C)[C@@H](O)CN(CCCc4ccnc5ccccc45)CC[C@@H](C)OC(=O)C[C@@H](OC(=O)CC)[C@@H]3OC)O[C@@H]2C)C[C@@]1(C)OC(C)=O
**Q:** Please list these compounds in decreasing order of MIC. Show the ranking through the labels, in the order asked for.
**A:** b, c, a
(b: 8 mg/L, c: 1 mg/L, a: 0.5 mg/L)
